# subject-of-test: human GLP-1 receptor (human, UniProt P43220 24-463)
# method-description: cell-based or functional assay
*1 amine or outer side, *2 acyl side, *3 side chain or, on linkers, in order; H or OH if unused. Where no end group is shown, it is not given here. Side-chain parts run from the residue outwards. [ ]: non-standard residue; d: D form. The star is where a group is joined. Decanoyl(10-(4-HOOC-PhO)) = O=C(O)c1ccc(OCCCCCCCCCC(=O)*)cc1; αMePhe(2-F) = C[C@](N)(Cc1ccccc1F)C(=O)O; γGlu = O=C(O)[C@H](CCC(=O)[*:2])N[*:1]; αMeY = C[C@](N)(Cc1ccc(O)cc1)C(=O)O; αMeL = CC(C)C[C@](C)(N)C(=O)O; Orn = NCCC[C@H](N)C(=O)O; AEEA = NCCOCCOCC(=O)O; Aib = CC(C)(N)C(=O)O
Label 1 for high-side cAMP EC50 (1.0% HSA) (at or above 40 nM) and 0 for low-side cAMP EC50 (1.0% HSA) (below it).

Worked cases, answers included:
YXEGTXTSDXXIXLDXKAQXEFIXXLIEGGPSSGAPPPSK (Y-Aib-EGT-αMeF(2F)-TSD-4Pal-Aib-I-αMeL-LD-Orn-K((2-[2-(2-Amino-ethoxy)-ethoxy]-acetyl)2-(γ-Glu)-CO-(CH2)10-CH3)AQ-Aib-EFI-(D-Glu)-αMeY-LIEGGPSSGAPPPSK((2-[2-(2-Amino-ethoxy)-ethoxy]-acetyl)2-(γ-Glu)-CO-(CH2)10-CH3)-NH2) [Example 324]	0
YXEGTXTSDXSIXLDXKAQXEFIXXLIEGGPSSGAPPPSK (Y-Aib-EGT-αMeF(2F)-TSD-OMeY-SI-αMeL-LD-Orn-K((2-[2-(2-Amino-ethoxy)-ethoxy]-acetyl)2-(γ-Glu)-CO-(CH2)10-CH3)AQ-Aib-EFI-(D-Glu)-αMeY-LIEGGPSSGAPPPSK((2-[2-(2-Amino-ethoxy)-ethoxy]-acetyl)2-(γ-Glu)-CO-(CH2)10-CH3)-NH2) [Example 291]	0
Y[Aib]EGT[αMePhe(2-F)]TSDV[Aib]I[αMeL]LD[Orn]IAQ[Aib]K([AEEA-AEEA-γGlu-Decanoyl(10-(4-HOOC-PhO))])FI[dE][αMeY]LIK([AEEA-AEEA-γGlu-Decanoyl(10-(4-HOOC-PhO))])GGPSSGAPPPS-NH2 [Example 330]	1
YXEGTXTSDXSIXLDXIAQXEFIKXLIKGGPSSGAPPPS (Y-Aib-EGT-αMeF(2F)-TSD-OMeY-SI-αMeL-LD-Orn-IAQ-Aib-EFIK((2-[2-(2-Amino-ethoxy)-ethoxy]-acetyl)2-(γ-Glu)-(10-(4-carboxyphenoxy)decanoyl))-αMeY-LIK((2-[2-(2-Amino-ethoxy)-ethoxy]-acetyl)2-(γ-Glu)-(10-(4-carboxyphenoxy)decanoyl))GGPSSGAPPPS-NH2) [Example 279]	0
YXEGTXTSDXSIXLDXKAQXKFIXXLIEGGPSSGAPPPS (Y-Aib-EGT-αMeF(2F)-TSD-OMeY-SI-αMeL-LD-Orn-K((2-[2-(2-Amino-ethoxy)-ethoxy]-acetyl)2-CO-(CH2)12-CO2H)AQ-Aib-K((2-[2-(2-Amino-ethoxy)-ethoxy]-acetyl)2-CO-(CH2)12-CO2H)FI-(D-Glu)-αMeY-LIEGGPSSGAPPPS-NH2 …) [Example 265]	0
YXEGTXTSDXSIXLDXKAQXKFIXXLIXGGPSSGAPPPS (Y-Aib-EGT-αMeF(2F)-TSD-4Pal-SI-αMeL-LD-Orn-K((2-[2-(2-Amino-ethoxy)-ethoxy]-acetyl)2-(γ-Glu)-CO-(CH2)10-CH3)AQ-Aib-K((2-[2-(2-Amino-ethoxy)-ethoxy]-acetyl)2-(γ-Glu)-CO-(CH2)10-CH3)FI-(D-Glu)-αMeY-LI-Orn-GGPSSGAPPPS-NH2) [Example 298]	0

IN: Could you tell me if the measured cAMP EC50 (1.0% HSA) of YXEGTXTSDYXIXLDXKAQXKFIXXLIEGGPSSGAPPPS (Y-Aib-EGT-αMeF(2F)-TSDY-Aib-I-αMeL-LD-Orn-K((2-[2-(2-Amino-ethoxy)-ethoxy]-acetyl)2-(γ-Glu)-CO-(CH2)12-CO2H)AQ-Aib-K((2-[2-(2-Amino-ethoxy)-ethoxy]-acetyl)2-(γ-Glu)-CO-(CH2)12-CO2H)FI-(D-Glu)-αMeY-LIEGGPSSGAPPPS-NH2) [Example 230] reaches 40 nM or more?
OUT: 1

IN: Could you tell me if the measured cAMP EC50 (1.0% HSA) of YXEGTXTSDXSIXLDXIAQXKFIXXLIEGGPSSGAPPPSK (Y-Aib-EGT-αMeF(2F)-TSD-2Nal-SI-αMeL-LD-Orn-IAQ-Aib-K((2-[2-(2-Amino-ethoxy)-ethoxy]-acetyl)2-(γ-Glu)-CO-(CH2)12-CO2H)FI-(D-Glu)-αMeY-LIEGGPSSGAPPPSK((2-[2-(2-Amino-ethoxy)-ethoxyl-acetyl)2-(γ-Glu)-CO-(CH2)12-CO2H)-NH2) [Example 254] reaches 40 nM or more?
OUT: 1

IN: Could you tell me if the measured cAMP EC50 (1.0% HSA) of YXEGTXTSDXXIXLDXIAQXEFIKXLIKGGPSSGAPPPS (Y-Aib-EGT-αMeF(2F)-TSD-4Pal-Aib-I-αMeL-LD-Orn-IAQ-Aib-EFIK((2-[2-(2-Amino-ethoxy)-ethoxy]-acetyl)3-(γ-Glu)-(10-(4-carboxyphenoxy)decanoyl))-αMeY-LIK((2-[2-(2-Amino-ethoxy)-ethoxy]-acetyl)3-(γ-Glu)-(10-(4-carboxyphenoxy)decanoyl))GGPSSGAPPPS-NH2) [Example 345] reaches 40 nM or more?
OUT: 0

IN: Could you tell me if the measured cAMP EC50 (1.0% HSA) of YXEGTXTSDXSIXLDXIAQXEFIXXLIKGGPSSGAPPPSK (Y-Aib-EGT-αMeF(2F)-TSD-4Pal-SI-αMeL-LD-Orn-IAQ-Aib-EFI-(D-Glu)-αMeY-LIK((2-[2-(2-Amino-ethoxy)-ethoxy]-acetyl)3-(γ-Glu)-CO-(CH2)12-CO2H)GGPSSGAPPPSK((2-[2-(2-Amino-ethoxy)-ethoxy]-acetyl)3-(γ-Glu)-CO-(CH2)12-CO2H)-NH2) [Example 229] reaches 40 nM or more?
OUT: 1

IN: Could you tell me if the measured cAMP EC50 (1.0% HSA) of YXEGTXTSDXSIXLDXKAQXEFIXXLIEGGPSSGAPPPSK (Y-Aib-EGT-αMeF(2F)-TSD-OMeY-SI-αMeL-LD-Orn-K((2-[2-(2-Amino-ethoxy)-ethoxy]-acetyl)2-CO-(CH2)12-CO2H)AQ-Aib-EFI-(D-Glu)-αMeY-LIEGGPSSGAPPPSK((2-[2-(2-Amino-ethoxy)-ethoxy]-acetyl)2-CO-(CH2)12-CO2H)-NH2) [Example 267] reaches 40 nM or more?
OUT: 0

IN: Could you tell me if the measured cAMP EC50 (1.0% HSA) of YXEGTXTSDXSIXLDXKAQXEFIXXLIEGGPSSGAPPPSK (Y-Aib-EGT-αMeF(2F)-TSD-2Nal-SI-αMeL-LD-Orn-K((2-[2-(2-Amino-ethoxy)-ethoxy]-acetyl)2-(γ-Glu)-CO-(CH2)12-CO2H)AQ-Aib-EFI-(D-Glu)-αMeY-LIEGGPSSGAPPPSK((2-[2-(2-Amino-ethoxy)-ethoxyl-acetyl)2-(γ-Glu)-CO-(CH2)12-CO2H)-NH2) [Example 251] reaches 40 nM or more?
OUT: 1

IN: Could you tell me if the measured cAMP EC50 (1.0% HSA) of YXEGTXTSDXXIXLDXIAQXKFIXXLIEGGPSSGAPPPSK (Y-Aib-EGT-αMeF(2F)-TSD-4Pal-Aib-I-αMeL-LD-Orn-IAQ-Aib-K((2-[2-(2-Amino-ethoxy)-ethoxy]-acetyl)-(γ-Glu)-CO-(CH2)12-CO2H)FI-(D-Glu)-αMeY-LIEGGPSSGAPPPSK((2-[2-(2-Amino-ethoxy)-ethoxy]-acetyl)-(γ-Glu)-CO-(CH2)12-CO2H)-NH2) [Example 341] reaches 40 nM or more?
OUT: 1
